These entries and their values trace back to PubChem BioAssay (NCI).

Hi there, I'd appreciate the recorded GI50 for every entry that follows.
System: CAKI-1 renal
test_method_notes: NCI tumour cell line growth inhibition, 48 h

Below are some compounds; for each one, tell me its GI50.
1. COc1cc2c(cc1OCCCCC(=O)Nc1ccc(-c3nc4ccccc4s3)cc1)N=C[C@@H]1CCCN1C2=O
2. COc1cc(C(=O)/C=C/c2c(-c3ccc(F)cc3)nc3sccn23)cc(OC)c1OC
3. Cc1cc(-c2ccccc2)c(C)n1Cc1ccc(Cl)cc1
4. NC1=CC(=O)C(=O)c2cccnc21

Ans:
["2200 nM", "405 nM", "3660 nM", "8450 nM"]

Below are some compounds; for each one, tell me its GI50.
1. Cc1ccc(C(=O)Nc2ccc(CN3CCN(C)CC3)c(C(F)(F)F)c2)cc1C#Cc1cncc2ncccc12
2. CN(C)CCCNC(=O)c1cc2c3ccccc3[nH]c2c2ncccc12
3. C/C1=C\CC[C@@](C)(O)[C@H]2C[C@H](CC/C(C)=C/CC1)C1(CC1)C(=O)O2
4. Cc1c(N2C(=O)/C(=C\c3ccc(O)cc3)N=C2c2ccccc2)c(=O)n(-c2ccccc2)n1C
5. CC(=O)OCCC/C(=C\c1ccc2ccccc2c1)[N+](=O)[O-]
6. NC(=O)Nc1ccc2ncnc(Nc3ccc(Cl)cc3)c2c1

Ans:
["222 nM", "7830 nM", "20700 nM", "> 100000 nM", "1500 nM", "1600 nM"]

###

System: ACHN renal
test_method_notes: NCI tumour cell line growth inhibition, 48 h
Hi there, I'd appreciate the recorded GI50 for every entry that follows.

Observe how each entry below is paired with its result.
COc1cc2c(cc1OCCCCC(=O)Nc1ccc(-c3nc4ccccc4s3)cc1)N=C[C@@H]1CCCN1C2=O : 3 µM
COC(=O)Nc1nc2c(OC)c(OC)c(OC)cc2[nH]1 : 81.9 µM
O=C1C=C(N2CC2)c2ccccc2C1=O : 1.58 µM
CCOC(=O)Nc1nc2c(F)c(F)c(F)cc2s1 : > 100 µM
Cc1cc[c-]cc1.Fc1c[c-]c(-c2ccccn2)c(F)c1.N#CCC[PH+](CCC#N)c1ccccc1.[Pt+2] : 3.33 µM
Cc1cc(C)cc(Nc2nccc(-c3c(-c4ccc(F)cc4)ncn3C3CCNCC3)n2)c1 : 0.46 µM
CCN(CC)c1ccc(/C=C/C(=O)c2cccc(NS(C)(=O)=O)c2)cc1 : 6.2 µM
c1ccc(-c2n(Cc3ccc4ccccc4n3)c3ccccc3[n+]2Cc2ccc3ccccc3n2)cc1 : 1.41 µM

Below are some compounds; for each one, tell me its GI50.
1. Cc1cc(N(CCCNc2ccnc3cc(Cl)ccc23)Cc2cccs2)nc(Cl)n1
2. O=C(O)c1cn(C2CC2)c2cc(N3CCN(S(=O)(=O)c4ccc(Cl)c(Cl)c4)CC3)c(F)cc2c1=O
3. Cc1c(N2C(=O)/C(=C\c3ccc(O)cc3)N=C2c2ccccc2)c(=O)n(-c2ccccc2)n1C
4. CC(=O)NNC(=O)c1nn(-c2ccc(Cl)cc2)cc1OC(C)=O
5. Cn1cc(-c2csc(-c3cn(CCN4CCOCC4)c4ccc(F)cc34)n2)c2cccnc21

Ans:
["5.12 µM", "3.1 µM", "> 100 µM", "15.3 µM", "2.82 µM"]

###

Tested on: SK-OV-3 ovarian
test_method_notes: NCI tumour cell line growth inhibition, 48 h
Hi there, I'd appreciate the recorded TGI for every entry that follows.

Observe how each entry below is paired with its result.
Cc1nnc(N)nc1/C=C\c1cccs1 : > 100 µM
CC(C)(C)c1ccc(C(=O)N/N=C/c2ccc(O)cc2O)cc1 : 14.7 µM
CCCCNC(=S)/N=C/c1c(O)c2ccccc2oc1=O : > 100 µM
FC1CCN(C2(c3cccs3)CCCCC2)CC1 : > 100 µM
O=C1OCC2=C1C(c1cccc(F)c1)c1cc3c(cc1N2CCO)OCCO3 (stereo unspecified) : > 50 µM
OC(COc1ccc(Cl)cc1Cl)CN1CCCC1 (stereo unspecified) : > 100 µM

Below are some compounds; for each one, tell me its TGI.
1. CC(C)O/C=C1\C(=O)C2(SCCS2)[C@H]2CCCC[C@@H]12
2. COc1ccc(/C=C/c2nc(N3CCOCC3)c3cc(F)c(F)cc3n2)cc1OC
3. CC(=O)c1ccc2c(c1)oc(=O)n2CCN(C)C

Ans:
1. > 100 µM
2. > 100 µM
3. > 100 µM

Below are some compounds; for each one, tell me its TGI.
1. COc1cc2c(cc1OCCCCCCNC(=O)c1cc3ccccc3[nH]1)N=CC1CCCN1C2=O (stereo unspecified)
2. COc1ccc2nc(-c3ccccc3)cc(Nc3ccc(/C(C)=N/O)cc3)c2c1

Ans:
1. > 100 µM
2. 5.22 µM

###

Test system: NCI-H23 lung
test_method_notes: NCI tumour cell line growth inhibition, 48 h
Hi there, I'd appreciate the recorded TGI for every entry that follows.

CCCCNC(=S)/N=C/c1c(O)c2ccccc2oc1=O : > 100 µM
O=C(CCc1cc(O)cc(O)c1)NCCc1ccc(O)c(O)c1 : > 100 µM
CNC1=C(C)C(=O)C(C)=C(C(C)(C)CC(=O)n2cc(F)c(=O)[nH]c2=O)C1=O : > 100 µM
C=CCN1CC2CN=NC2(C#N)C1 (stereo not given) : > 100 µM

Below are some compounds; for each one, tell me its TGI.
1. COc1cc2ccc(CC#N)cc2cc1OC
2. CC(=O)NNC(=O)c1nn(-c2ccc(Cl)cc2)cc1OC(C)=O
3. COC(=O)[C@]12CC[C@@H](C)[C@H](C)[C@@H]1C1=CC[C@@H]3[C@@]4(C)C(c5ncon5)=C[C@@](C)(CO)C4=CC[C@@]3(C)[C@]1(C)CC2
4. COc1ccc(-c2cc(-c3ccccc3)c(C#N)c(=O)[nH]2)cc1
5. COc1ccc(C(=O)Nc2ncc(Cc3ccc(F)cc3)s2)cc1

Ans:
1: > 100 µM; 2: 97.2 µM; 3: 4.52 µM; 4: > 100 µM; 5: > 100 µM

Q: # input compound: `Nc1c(C(=O)Nc2cccc3ccccc23)sc2nc3c(cc12)CCCC3` ; wanted: its TGI
Ans: > 100 µM

###

Hi there, I'd appreciate the recorded TGI for every entry that follows.
Tested on: SK-MEL-28 melanoma
test_method_notes: NCI tumour cell line growth inhibition, 48 h

Observe how each entry below is paired with its result.
CC(C)[C@@H](C(=O)O[C@@H]1/C=C/C(=O)O[C@@H](C)CCC/C=C/[C@@H]2C[C@H](O)C[C@H]21)[N+](C)(C)C : > 100 µM
CC(/C=N/NC1=NCCCCN1)=N\NC1=NCCCCN1 : > 100 µM
COc1ccc(CNc2nc3ccccc3nc2-c2cccs2)cc1OC : > 100 µM
COc1cc(NCC(C#N)C#N)ccc1N=Nc1ccc([N+](=O)[O-])cc1 : > 100 µM
O=C1Nc2ccccc2NC1C1OC(c2ccccc2)=CC1=O (stereo not given) : > 100 µM
O=C1C2C(C(=O)[N]1[Hg][c]1ccccc1)C1(Cl)C(Cl)=C(Cl)C2(Cl)C1(Cl)Cl (stereo not given) : 2.73 µM
Cc1ccc(C(=O)Nc2ccc(CN3CCN(C)CC3)c(C(F)(F)F)c2)cc1C#Cc1cncc2ncccc12 : 1.55 µM
O=C(/C=C/c1cccs1)c1ccsc1 : 81.7 µM
CCCCCCC(CCl)c1sc(-c2csc(CCNC(=O)OC(C)(C)C)n2)nc1C(=O)OC (stereo not given) : > 100 µM

Q: # input molecule: `NNC(=O)CC(=O)Nc1ccccc1F` ; wanted: its TGI
Ans: > 100 µM

###

Test system: IGROV1 ovarian
test_method_notes: NCI tumour cell line growth inhibition, 48 h; in the data active means GI50 below about 0.43 µM; inactive means the rest
Entry note: the call must match one of active, inactive

Solved entries (count: 3):
C[C@@H]1CN(Cc2ccc(/C=C/c3n[nH]c4ccc5nc(-c6cn[nH]c6C(F)(F)F)c6c(c5c34)CCCC6)cc2)C[C@H](C)O1 : inactive
CN(C)CCCNC(=O)c1cc2c3ccccc3[nH]c2c2ncccc12 : inactive
O=C1C2C(C(=O)[N]1[Hg][c]1ccccc1)C1(Cl)C(Cl)=C(Cl)C2(Cl)C1(Cl)Cl (stereo not drawn) : inactive

Q: Please indicate how the test categorized `COc1ccc(C(=O)Nc2ncc(Cc3ccc(F)cc3)s2)cc1` .
Ans: active

Q: Please indicate how the test categorized `Cc1cc(N(CCCNc2ccnc3cc(Cl)ccc23)Cc2cccs2)nc(Cl)n1` .
Ans: inactive

Q: Please indicate how the test categorized `CC(C)(C)c1ccc(C(=O)N/N=C/c2ccc(O)cc2O)cc1` .
Ans: active

###

Hi there, I'd appreciate the recorded TGI for every entry that follows.
Tested on: NCI-H460 lung
test_method_notes: NCI tumour cell line growth inhibition, 48 h

O=C1Nc2ccccc2NC1C1OC(c2ccccc2)=CC1=O (stereo not given) : > 100 µM
O=C(c1ccc(Cl)cc1)N1N=C(c2ccc(Cl)cc2)CC1(O)c1cc(F)c(Cl)cc1Cl (stereo not given) : > 100 µM
COc1cc(C2[C@H]3C(=O)N(c4ccc(Cc5ccc(N6C(=O)[C@@H]7ON(c8ccccc8)C(c8cc(OC)c(OC)c(OC)c8)[C@@H]7C6=O)cc5)cc4)C(=O)[C@H]3ON2c2ccccc2)cc(OC)c1OC (stereo not given in full) : > 100 µM

Below are some compounds; for each one, tell me its TGI.
1. CCN(CC)C(=S)SNCCc1ccc(S(N)(=O)=O)cc1
2. Cc1cn(C2C=CC(=O)C(C)O2)c(=O)[nH]c1=O (stereo not given)
3. COC(=O)[C@]12CC[C@@H](C)[C@H](C)[C@@H]1C1=CC[C@@H]3[C@@]4(C)C(c5ncon5)=C[C@@](C)(CO)C4=CC[C@@]3(C)[C@]1(C)CC2
4. O=C1C2Cc3ccccc3CN2C(=O)N1CN1CCN(CN2C(=O)C3Cc4ccccc4CN3C2=O)CC1 (stereo not given)
5. CC1(C)CCc2cc3c(cc2O1)OC(C)(C)C1c2c(ccc4c2CCC(C)(C)O4)OC31 (stereo not given)
6. COC(=O)C1CC2(c3ccc(C)cc3)C(c3ccc(C)cc3)=C(c3ccc(C)cc3)C1(c1ccc(C)cc1)S2=O (stereo not given)
7. Cc1cc(=O)c2c(O)c3c(O)cc(O)c4c5c(O)cc(O)c6c(O)c7c(=O)cc(C)c8c1c2c(c34)c(c65)c78

Ans:
1: > 100 µM; 2: 35.5 µM; 3: 3.95 µM; 4: > 100 µM; 5: > 100 µM; 6: > 100 µM; 7: > 100 µM

Below are some compounds; for each one, tell me its TGI.
1. Nc1c(C(=O)Nc2cccc3ccccc23)sc2nc3c(cc12)CCCC3
2. O=[N+]([O-])c1cccc2nc3ccccc3c(NCCC[N+]3([O-])CCCCC3)c12
3. Clc1ccc(OCC2NC3C=CC32)cn1 (stereo not given)

Ans:
1: > 100 µM; 2: 1.18 µM; 3: > 100 µM

Below are some compounds; for each one, tell me its TGI.
1. O=C(Cc1ccc(/C=C/C(=O)c2ncc[nH]2)cc1)Nc1ccc(Br)cc1
2. CC(=O)Nc1ccc(-c2nnc(SCC(=O)Nc3ccccc3[N+](=O)[O-])o2)cc1
3. O=C1OCC2=C1C(c1cccc(F)c1)c1cc3c(cc1N2CCO)OCCO3 (stereo not given)

Ans:
1. 8.66 µM
2. > 100 µM
3. > 50 µM

Below are some compounds; for each one, tell me its TGI.
1. COc1cc(C2c3cc4c(cc3C3OC(=O)C2C3CO)OCO4)cc(OC)c1OC (stereo not given)
2. CC1SC2=NC3=C(c4ccccc4C3=O)C(c3ccc(Br)cc3)N2C1=O (stereo not given)
3. O=C(/C=C/c1cccs1)c1ccsc1
4. COC(=O)c1ccc(C)cc1C1CN=NC12Cc1cc(C)c(C)cc1C2=O (stereo not given)

Ans:
["> 100 µM", "> 100 µM", "60.4 µM", "> 100 µM"]
